Species: Rattus norvegicus
Assay: Open TG-GATES - Regimen: Daily Repeat
Type: toxicity, organism-based, Sprague-Dawley
Set-up: regimen Daily Repeat, gender Male, age 6 weeks
Details: in vivo, po, 300 mg/kg, […], tissue Kidney, route gavage, dose level Middle, time 14 day
OUTCOME MEASURE: KIDNEY_R

| MOLECULE | OUTCOME MEASURE | ASSAY VALUE |
| --- | --- | --- |
| CC(S)C(=O)NCC(=O)O (centres undefined) | KIDNEY_R | 1.2 g |
| O=C(O)c1ccccc1Nc1ccccc1 | KIDNEY_R | 1.4 g |
| CCCCNC(=O)NS(=O)(=O)c1ccc(C)cc1 [TOLBUTAMIDE] | KIDNEY_R | 1.3 g |
| CC(=O)[C@@]1(O)CC[C@H]2[C@@H]3C=C(Cl)C4=CC(=O)CC[C@]4(C)[C@H]3CC[C@@]21C | KIDNEY_R | 1.1 g |

====

Organism: Rattus norvegicus
Assay: Open TG-GATES - Regimen: Daily Repeat
Assay type: toxicity, organism-based, Sprague-Dawley
Set-up: regimen Daily Repeat, gender Male, age 6 weeks
Settings: in vivo, po, 0 mg/kg, […], tissue Blood, route gavage, dose level Control, time 28 day
Neu values, listed per item
OUTCOME MEASURE: Neu (%)

| COMPOUND | OUTCOME MEASURE | ASSAY VALUE |
| --- | --- | --- |
| CCN(CC)C(=S)SSC(=S)N(CC)CC | Neu | 12.2 |
| CC(=O)[C@@]1(O)CC[C@H]2[C@@H]3C=C(Cl)C4=CC(=O)CC[C@]4(C)[C@H]3CC[C@@]21C | Neu | 14.2 |
| CN(CCOc1ccc(CC2SC(=O)NC2=O)cc1)c1ccccn1.O=C(O)/C=C\C(=O)O (configuration not stated) [ROSIGLITAZONE MALEATE] | Neu | 16.4 |
| CCCCNC(=O)NS(=O)(=O)c1ccc(C)cc1 [TOLBUTAMIDE] | Neu | 16 |
| CN(C/C=C/C#CC(C)(C)C)Cc1cccc2ccccc12 | Neu | 15.8 |
| O=C(O)c1ccccc1Nc1ccccc1 | Neu | 17.2 |
| O=c1ccc2ccccc2o1 | Neu | 13.8 |
| CC(S)C(=O)NCC(=O)O (configuration not stated) | Neu | 14.2 |
| NS(=O)(=O)c1cc(C(=O)O)c(NCc2ccco2)cc1Cl [FUROSEMIDE] | Neu | 13.4 |
| CCO | Neu | 11 |
| COc1ccc([C@@H]2Sc3ccccc3N(CCN(C)C)C(=O)[C@@H]2OC(C)=O)cc1 | Neu | 18.8 |
| Nc1ccc(Cc2ccc(N)cc2)cc1 | Neu | 17.6 |

====

ALP values, listed per item
Species: Rattus norvegicus
Assay: Open TG-GATES - Regimen: Daily Repeat
Format: toxicity, organism-based, Sprague-Dawley
Design: regimen Daily Repeat, gender Male, age 6 weeks
Conditions: in vivo, po, 1000 mg/kg, […], tissue Plasma, route gavage, dose level High, time 7 day
OUTCOME MEASURE: ALP (IU/L)

| MOLECULE | UOM | ASSAY VALUE |
| --- | --- | --- |
| CC(=O)[C@@]1(O)CC[C@H]2[C@@H]3C=C(Cl)C4=CC(=O)CC[C@]4(C)[C@H]3CC[C@@]21C [CHLORMADINONE] | IU/L | 1456.8 |
| CC(S)C(=O)NCC(=O)O (centres undefined) [TIOPRONIN] | IU/L | 1407 |
| O=C(O)c1ccccc1Nc1ccccc1 [FENAMIC ACID] | IU/L | 1573.3 |
| CCCCNC(=O)NS(=O)(=O)c1ccc(C)cc1 [TOLBUTAMIDE] | IU/L | 1609.6 |
